# Lookup of reported binding signal keyed by entry
# subject.of.test: RELARELA (p65 homodimer) (Homo sapiens, UniProt Q04206 1-307)
# Sequence (Q04206 1-307): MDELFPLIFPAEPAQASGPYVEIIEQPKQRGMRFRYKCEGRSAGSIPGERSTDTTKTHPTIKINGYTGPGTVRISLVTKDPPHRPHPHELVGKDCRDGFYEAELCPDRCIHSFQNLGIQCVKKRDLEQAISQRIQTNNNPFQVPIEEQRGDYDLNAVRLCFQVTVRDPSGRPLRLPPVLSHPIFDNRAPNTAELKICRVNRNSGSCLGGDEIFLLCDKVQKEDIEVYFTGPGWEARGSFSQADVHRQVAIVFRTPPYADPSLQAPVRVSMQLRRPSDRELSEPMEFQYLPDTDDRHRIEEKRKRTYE
# test.details: protein binding microarray; high values mean tight binding
# measurement.setup: dsDNA, one strand shown
property.label: binding signal (z-score)

* CAAGGCCCCCT | -1.53
* AGATTCCTCCC | 0.213
* AGAATAATCCT | -0.568
* GAGTACACCCT | -0.136
* GGGTACTCCCC | 1.34

---

# subject.of.test: C-Rel subunit;p52 subunit (Homo sapiens;Homo sapiens, UniProt Q04864;Q00653 1-285;4-332)
# Sequence 1: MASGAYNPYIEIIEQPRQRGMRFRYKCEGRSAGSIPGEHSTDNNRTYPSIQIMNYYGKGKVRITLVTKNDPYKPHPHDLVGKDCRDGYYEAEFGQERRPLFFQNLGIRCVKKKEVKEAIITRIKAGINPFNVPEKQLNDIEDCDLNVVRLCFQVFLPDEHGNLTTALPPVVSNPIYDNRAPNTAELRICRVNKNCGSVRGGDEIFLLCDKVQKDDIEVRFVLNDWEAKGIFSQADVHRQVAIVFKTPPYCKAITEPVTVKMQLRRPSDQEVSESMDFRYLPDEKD
# Sequence 2: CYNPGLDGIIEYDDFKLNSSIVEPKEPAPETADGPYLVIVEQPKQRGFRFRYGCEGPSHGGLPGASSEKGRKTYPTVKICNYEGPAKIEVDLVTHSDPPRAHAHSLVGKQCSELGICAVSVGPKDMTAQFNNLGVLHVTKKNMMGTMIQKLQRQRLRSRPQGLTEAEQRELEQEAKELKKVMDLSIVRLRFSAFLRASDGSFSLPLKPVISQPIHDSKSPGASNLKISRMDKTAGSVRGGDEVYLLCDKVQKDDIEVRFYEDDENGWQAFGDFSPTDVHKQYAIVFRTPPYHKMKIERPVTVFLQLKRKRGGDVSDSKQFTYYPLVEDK
# test.details: protein binding microarray; high values mean tight binding
# measurement.setup: dsDNA, one strand shown
property.label: binding signal (z-score)

- GAAGTACCCCC: 0.946
- CAAGTGGCCCT: -0.793
- AGAAGGCCCCT: 0.0154
- GAAAACGTCCT: -0.648
- GAAGGGCTCCC: -0.778
- AGAAATACCCT: 1.68
- AAGAGCTTCCC: -0.463
- CAAGACCTCCC: -0.713
- CGAGAAATCCC: 0.451

---

Recorded binding signal for the following sequences
# subject.of.test: C-Rel subunit;p50 subunit (Homo sapiens;Homo sapiens, UniProt Q04864;P19838 1-285;7-356)
# Sequence (P19838 7-356, one chain of several): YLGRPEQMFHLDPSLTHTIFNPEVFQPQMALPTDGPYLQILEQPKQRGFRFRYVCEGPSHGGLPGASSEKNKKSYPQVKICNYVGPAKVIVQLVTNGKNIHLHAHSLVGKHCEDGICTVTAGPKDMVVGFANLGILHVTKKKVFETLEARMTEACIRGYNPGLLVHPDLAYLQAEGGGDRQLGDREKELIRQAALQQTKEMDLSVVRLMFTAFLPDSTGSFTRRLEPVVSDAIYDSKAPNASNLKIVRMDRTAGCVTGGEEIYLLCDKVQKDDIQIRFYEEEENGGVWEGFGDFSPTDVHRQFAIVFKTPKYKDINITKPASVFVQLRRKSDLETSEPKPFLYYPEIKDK
# test.details: protein binding microarray; high values mean tight binding
# measurement.setup: dsDNA, one strand shown
property.label: binding signal (z-score)

* CGGAGGCCCCC | 0.165
* CAAATGCCCCT | 0.882
* CAAATTCCCCC | 1.89
* AGGTGTCCCCC | 1.14
* AGGAGCGCCCC | 0.0948
* AAGAGGTTCCT | -1.22
* CAGAGATTCCT | -0.64
* GAAAAGGCCCC | -0.101
* AGAGATTTCCT | -0.209
* AAGTTCACCCC | 0.451

---

# subject.of.test: RELB subunit;p52 subunit (Homo sapiens;Homo sapiens, UniProt Q01201;Q00653 120-401;4-332)
# Sequence 1: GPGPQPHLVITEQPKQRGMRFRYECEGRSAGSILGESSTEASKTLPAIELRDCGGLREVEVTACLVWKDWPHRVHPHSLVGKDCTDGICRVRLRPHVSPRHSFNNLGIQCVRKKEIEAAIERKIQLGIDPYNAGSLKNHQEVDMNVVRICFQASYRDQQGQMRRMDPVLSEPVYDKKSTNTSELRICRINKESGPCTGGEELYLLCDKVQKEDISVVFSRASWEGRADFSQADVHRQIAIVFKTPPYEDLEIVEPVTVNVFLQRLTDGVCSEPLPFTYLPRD
# Sequence 2: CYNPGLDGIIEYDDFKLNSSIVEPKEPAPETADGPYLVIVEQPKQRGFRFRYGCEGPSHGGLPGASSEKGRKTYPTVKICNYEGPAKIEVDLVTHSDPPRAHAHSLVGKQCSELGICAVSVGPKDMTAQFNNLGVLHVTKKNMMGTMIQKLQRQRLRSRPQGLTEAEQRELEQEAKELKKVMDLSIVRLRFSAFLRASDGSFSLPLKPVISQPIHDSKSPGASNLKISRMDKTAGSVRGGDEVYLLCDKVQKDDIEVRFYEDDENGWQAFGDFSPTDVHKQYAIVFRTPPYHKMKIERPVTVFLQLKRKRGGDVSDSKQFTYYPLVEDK
# test.details: protein binding microarray; high values mean tight binding
# measurement.setup: dsDNA, one strand shown
Could you label it 1 (yes) if measured binding signal is -0.5 z-score or higher, and 0 (no) otherwise?

- AAATAGATCCC: 0 (no)
- GAGTACACCCT: 0 (no)
- CAGGACACCCT: 0 (no)
- CGGAGGCCCCC: 1 (yes)
- CAGTAGACCCC: 1 (yes)
- AGAAGGCCCCT: 1 (yes)
- CAAGTGGCCCT: 1 (yes)
- GAAGTTATCCC: 1 (yes)
- CGATAGCTCCT: 0 (no)
- GGGTAAGTCCT: 1 (yes)
- CAAGAGATCCT: 0 (no)
- AAGGGTTTCCC: 1 (yes)

---

# subject.of.test: p52p52 homodimer (Homo sapiens, UniProt Q00653 4-332)
# Sequence: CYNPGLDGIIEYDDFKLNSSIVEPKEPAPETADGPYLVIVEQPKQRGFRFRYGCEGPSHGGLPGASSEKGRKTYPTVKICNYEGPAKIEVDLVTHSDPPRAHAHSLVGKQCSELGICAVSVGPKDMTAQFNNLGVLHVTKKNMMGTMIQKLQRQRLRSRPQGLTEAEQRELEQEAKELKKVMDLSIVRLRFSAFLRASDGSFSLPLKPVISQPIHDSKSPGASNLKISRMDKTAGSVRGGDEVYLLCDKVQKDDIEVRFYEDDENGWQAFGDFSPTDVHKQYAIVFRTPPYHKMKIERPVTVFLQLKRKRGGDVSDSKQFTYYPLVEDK
# test.details: protein binding microarray; high values mean tight binding
# measurement.setup: dsDNA, one strand shown
This section presents sequences with their documented binding signal values.
property.label: binding signal (z-score)

- GAGATCCTCCC: -0.376
- GGAATTACCCC: 1.76
- AGGTATACCCT: -0.102
- CGATGGGCCCT: -0.601
- AAGAGCTTCCC: -0.487
- AAGTAAGTCCC: 0.587
- GAGGAGCCCCC: 0.368
- CAGAATCTCCC: -0.063
- CAAAATGCCCT: -0.35
- GGAGGGATCCT: -0.254
- AGATGCGCCCT: -0.603
- GAAAGTGCCCC: 0.105
- CGAGTGCTCCT: -0.788
- CAAAAACCCCT: 2.66
- GAGAAAGTCCC: 1.91
- GGATAGTCCCT: 1.57
- AAAGGACTCCT: -0.681
- CGGGTATCCCC: 2.48
- AAAATACCCCT: 1.92
- CGAAGCGCCCC: -0.173
- CAGAGCATCCC: -0.586
- GGGTGAATCCT: 0.368
- CAATTGCTCCC: -0.46
- AAGAGGTTCCT: -0.462
- AGAGAGGCCCC: -0.348
- CGAGGGCCCCC: -0.0825
- GGGTGTTTCCT: 1.06
- CAGTAGACCCC: -0.423
- CAAATTTTCCC: 1.47
- GAAGGCCCCCC: 0.244
- AAGGGCACCCC: -0.342
- CGGTTCCCCCC: 1.57
- AAAGAGACCCT: -0.457
- CGGTACTCCCT: 0.708
- CAGTGACCCCT: -0.0283
- CAGAAAATCCC: 1.18
- GGGTAGTTCCT: 0.541
- AGATTCCTCCC: -0.138
- CAGAGCACCCT: -0.306
- CAAATGCCCCT: 1.14
- CAATTCGTCCC: 0.533
- GAATGGCCCCT: 0
- CAGGACACCCT: -0.717
- GAAGGCATCCT: -0.851
- GGAGATTCCCC: 2.51
- AAAAAGCTCCT: -0.675
- AAGGGTGCCCT: -0.569
- CGGGAACTCCT: 0.181
- CGAAAGGCCCT: -0.447
- GAAGACCTCCT: -0.857
- GGGGTGTTCCT: 0.617
- GAGGTGACCCC: -0.328
- GGATTTCTCCT: -0.416
- CGGGGAATCCC: 3.13
- CAAGGGTCCCT: 0.26
- AGAGGTGTCCT: -0.541
- GGAGTAATCCC: 0.000216
- CGAATGTCCCC: 0.861
- AGGTGACTCCT: -0.228
- GGAAGTATCCT: -0.457
- AGGAAACTCCT: -0.404
- GAAGATTTCCT: -0.513
- AAGTTTCCCCT: 2.41
- CAATATTTCCC: 0.706
- GAAGAAGCCCT: -0.651
- AGAGGCCTCCT: -0.785
- CAGTTTATCCC: 0.0692
- CGGAAGCTCCT: -0.752
- AAGTGGGTCCC: -0.0356
- GGAGTCACCCT: -0.345
- GGATTCCCCCT: 2.93
- GAGAGACTCCT: -0.793
- GGGTTATCCCC: 3.22
- GAGGAGGCCCT: -0.602
- GAGGGCACCCT: -0.651
- GAGTGACTCCC: -0.413
- GAGTAGTCCCT: 1.21
